- testDetails: Cytotoxicity against HEK293T cells assessed as inhibition of cell growth measured after 48 hrs by CCK8 assay
- Format: toxicity, cell-based, HEK-293T
- conditionParameters: human
Answer each item with its documented CC50 at 48 h.

Worked cases, CC50 at 48 h given:
entrysmiles=CSCC[C@H](N)C(=O)Nc1nc(N)ccc1/N=N/c1ccccc1 measurement="> 100 µM"
entrysmiles=Cc1ccc(/N=N/c2ccc(N)nc2N)cc1 measurement="> 100 µM"
entrysmiles=Nc1ccc(/N=N/c2cccc3c2CCCC3)c(N)n1 measurement="78.9 µM"

Hi team, please reply with CC50 at 48 h for each item in this list.
1. Nc1nc(N)c(/N=N/c2ccccc2)cc1Br
2. CC(C)(C)OC(=O)NCC(=O)Nc1nc(N)ccc1/N=N/c1ccccc1
3. Nc1ccc(/N=N/c2ccc(F)cc2)c(N)n1

1: > 100 µM; 2: > 100 µM; 3: > 100 µM

----------
- experimentalSystem: UniProtKB P0DTD1
- testDetails: Inhibition of SARS-CoV-2 RdRp in HEK-293T cells at 10 uM measured after 24 hrs relative to control
- Type: cell-based
Returns 1 (yes) if the recorded inhibition is greater than or equal to 70%, and 0 (no) otherwise.

The following compounds have reported results that may help.
compound=Nc1ccc(/N=N/c2ccc(OCc3ccccc3)cc2)c(N)n1 experimentalsystem="UniProtKB P0DTD1" class="0 (no)"
compound=CC(C)(C)OC(=O)NCC(=O)Nc1nc(N)ccc1/N=N/c1ccccc1 experimentalsystem="UniProtKB P0DTD1" class="1 (yes)"
compound=Nc1ccc(/N=N/c2ccc([N+](=O)[O-])cc2)c(N)n1 experimentalsystem="UniProtKB P0DTD1" class="0 (no)"
compound=Nc1ccc(/N=N/c2ccccc2)c(NC(=O)[C@@H]2CCCN2)n1 experimentalsystem="UniProtKB P0DTD1" class="1 (yes)"

Form field: inhibition at least 70%? Entry: `Nc1nc(N)c(/N=N/c2ccccc2)cc1Br`
0 (no)

Form field: inhibition at least 70%? Entry: `Nc1cc(-c2ccccc2)c(/N=N/c2ccccc2)c(N)n1`
0 (no)

Form field: inhibition at least 70%? Entry: `NCC(=O)Nc1nc(N)ccc1/N=N/c1ccccc1`
0 (no)

----------
- testDetails: Cytotoxicity against human HCT-8 cells incubated for 48 hrs by CCK8 method
- Assay type: toxicity, cell-based
quantityKind: CC50 at 48 h

compound="Cl.Nc1ccc(/N=N/c2ccccc2)c(N)n1 [PHENAZOPYRIDINE HYDROCHLORIDE]" quantitykind="CC50 at 48 h" measurement="> 100 µM"
compound=CC(C)(C)OC(=O)N1CCC[C@H]1C(=O)Nc1nc(N)ccc1/N=N/c1ccccc1 quantitykind="CC50 at 48 h" measurement="> 100 µM"

Let's switch to this compound now.
GET /values?readout=CC50 at 48 h&item= `CCC(CC)COC(=O)[C@H](C)N[P@](=O)(OC[C@H]1O[C@@](C#N)(c2ccc3c(N)ncnn23)[C@H](O)[C@@H]1O)Oc1ccccc1`
> 100 µM

----------
Answer each item with its documented inhibition.
- experimentalSystem: Replicase polyprotein 1ab (Severe acute respiratory syndrome coronavirus 2) (UniProt P0DTD1)
- testDetails: Inhibition of SARS-CoV-2 RdRp in HEK-293T cells at 10 uM measured after 24 hrs relative to control
- Format: cell-based

Worked cases, inhibition given:
compound=Nc1ccc(/N=N/c2cccc3c2CCCC3)c(N)n1 measurement=71.8%
compound=Cc1ccc(/N=N/c2ccc(N)nc2N)cc1 measurement=59.1%
compound=Oc1ccc(/N=N/c2ccccc2)cc1 measurement=45.4%
compound=CSCC[C@H](NC(=O)OC(C)(C)C)C(=O)Nc1nc(N)ccc1/N=N/c1ccccc1 measurement=83%
compound=CSCC[C@H](N)C(=O)Nc1nc(N)ccc1/N=N/c1ccccc1 measurement=55.3%
compound=C[C@H](NC(=O)OC(C)(C)C)C(=O)Nc1nc(N)ccc1/N=N/c1ccccc1 measurement=86%
compound=Nc1ccc(/N=N/c2ccc(Br)cc2)c(N)n1 measurement=71.8%
compound=Nc1ccc(/N=N/c2ccccc2)c(NC(=O)[C@@H](N)Cc2ccccc2)n1 measurement=56.7%

Hi team, please reply with inhibition for each item in this list.
1. COc1ccc(/N=N/c2ccc(N)nc2N)cc1
2. CN(C)c1ccc(/N=N/c2ccc(N)nc2N)cc1
3. CC(C)(C)OC(=O)N[C@@H](Cc1ccccc1)C(=O)Nc1nc(N)ccc1/N=N/c1ccccc1
4. CC(C)(C)OC(=O)N[C@@H](Cc1c[nH]c2ccccc12)C(=O)Nc1nc(N)ccc1/N=N/c1ccccc1
5. Nc1ccc(/N=N/c2ccc(Cc3ccccc3)cc2)c(N)n1
6. Nc1ccc(/N=N/c2ccc(C(F)(F)F)cc2)c(N)n1
7. Nc1ccc(/N=N/c2ccc(Cl)cc2)c(N)n1

1: 48%; 2: 50.1%; 3: 79.8%; 4: 79.8%; 5: 59.3%; 6: 74.9%; 7: 64.5%

Hi team, please reply with inhibition for each item in this list.
1. Nc1nc(N)c(/N=N/c2ccccc2)cc1/N=N/c1ccccc1
2. Cl.Nc1ccc(/N=N/c2ccccc2)c(N)n1 [PHENAZOPYRIDINE HYDROCHLORIDE]

1. 46%
2. 50%

The measured values listed here are drawn from ChEMBL document CHEMBL6109081.
